- assay_info: Cytotoxicity against human melanoma cells after 48 hrs by SRB assay
- Type: functional
- study_conditions: Melanoma cell, read-out: LC50 (the source's name)
The compounds listed here are annotated with their CC50.

Sample COc1ccc(C2CC(c3ccccc3)=NN2C2=NC(=O)/C(=C3\C(=O)Nc4ccc(Br)cc43)S2)cc1 (stereo not given) — what was its CC50? 5.01 µM

Sample COc1ccc(-c2cc(-c3ccc(Cl)cc3)n(C3C(=O)Nc4ccc(Br)cc43)n2)cc1 (stereo not given) — what was its CC50? 81.1 µM

Sample COc1ccc(C2=NN(C3=NC(=O)/C(=C4\C(=O)Nc5ccc(Br)cc54)S3)C(c3ccc(OC)cc3)C2)cc1 (stereo not given) — what was its CC50? 17.3 µM

Sample O=C1N=C(N2N=C(c3ccccc3)CC2c2ccc(Cl)cc2)S/C1=C1/C(=O)Nc2ccccc21 (stereo not given) — what was its CC50? 1 µM

Sample O=C1N=C(N2N=C(c3ccccc3)CC2c2ccccc2O)S/C1=C1/C(=O)Nc2ccc(Br)cc21 (stereo not given) — what was its CC50? 2.43 µM

Where do the numbers come from? From ChEMBL document CHEMBL2169792.
